The reported measurements were obtained from patent US20220281973A1.

Biological target: T1, human LRIG1 extracellular domain fused to a linker-spaced 6-histidine tag, LRIG1-ECD-His (R&D systems, … (human, UniProt Q96JA1 35-794))
T1 construct: Bought protein; also called human LRIG1-His; hLRIG1-His; not shown: linker-spaced 6-histidine tag
T1 sequence: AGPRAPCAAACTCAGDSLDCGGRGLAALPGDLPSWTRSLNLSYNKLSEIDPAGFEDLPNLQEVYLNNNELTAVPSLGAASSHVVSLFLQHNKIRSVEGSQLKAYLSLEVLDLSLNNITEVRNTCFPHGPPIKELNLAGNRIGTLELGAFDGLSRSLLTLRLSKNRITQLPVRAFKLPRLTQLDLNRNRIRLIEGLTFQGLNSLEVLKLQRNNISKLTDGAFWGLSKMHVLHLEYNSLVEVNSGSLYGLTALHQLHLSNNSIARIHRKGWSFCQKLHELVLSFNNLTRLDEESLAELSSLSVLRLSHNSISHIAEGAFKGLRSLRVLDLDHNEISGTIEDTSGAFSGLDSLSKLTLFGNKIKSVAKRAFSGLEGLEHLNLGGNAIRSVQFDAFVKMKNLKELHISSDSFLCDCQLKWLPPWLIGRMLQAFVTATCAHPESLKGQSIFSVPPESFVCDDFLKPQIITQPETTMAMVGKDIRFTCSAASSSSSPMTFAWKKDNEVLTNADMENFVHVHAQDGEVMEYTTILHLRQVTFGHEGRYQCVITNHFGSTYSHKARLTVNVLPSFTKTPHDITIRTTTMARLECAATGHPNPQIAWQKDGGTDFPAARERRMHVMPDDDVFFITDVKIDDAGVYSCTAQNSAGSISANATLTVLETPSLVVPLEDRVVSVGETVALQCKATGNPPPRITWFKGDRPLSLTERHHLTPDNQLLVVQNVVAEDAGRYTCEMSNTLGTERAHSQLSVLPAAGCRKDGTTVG
Experiment: LRIG1 ECD ELISA-positive hybridoma antibodies tested in blocking ELISA on plate-bound LRIG1-ECD-His

binder	binding result
802.5G6.2B8 (antibody, V domains shown, Mouse hybridoma monoclonal) VH: EVHLVESGGGLMKPGGSLKLSCAASGFTFSSYAMSWVRQTPEKRLEWVATISDGGSYTYYPDNVKGRFTISRDNAKNNLYLQMSRLKSEDTAMYYCSRAGSTVVNFGYWGQGTTLTVSS VL: DIVMTQTPLSLPVSLGDQASISCRSSQNIAHSNGNTYLEWYLQKPGQSPQLLIYKVSNRFSGVPDRFSGSGSGTDFTLKISRVEAEDLGVYYCFQGSHVPLTFGAGTKLELK	binds
802.4B6.2E11 (antibody, V domains shown, Mouse hybridoma monoclonal) VH: QVQLQQPDTELVKPGASVKLSCRASGYTFTSYWINWVKQRPGQGLEWIGNIYPGTSSTNYNEKFKSKATLTVDPSSSTAYMQLSSLTSDDSAVYYCSRSSYRYTYYSWGQGTTLTVSS VL: DVVMTQTPLSLPVSLGDQASISCRSSQSIVQSNGITYLEWYLKKPGQSPNLLIYKVSNRLSGVPDRFSGSGSGTDFTLKISRVEADDLGVYYCFQGSHVPLTFGAGTKLELK	binds
